Values compiled from ChEMBL document CHEMBL3616406.

# target_entity: Bifunctional epoxide hydrolase 2 (Homo sapiens)
# Sequence (P34913 whole entry): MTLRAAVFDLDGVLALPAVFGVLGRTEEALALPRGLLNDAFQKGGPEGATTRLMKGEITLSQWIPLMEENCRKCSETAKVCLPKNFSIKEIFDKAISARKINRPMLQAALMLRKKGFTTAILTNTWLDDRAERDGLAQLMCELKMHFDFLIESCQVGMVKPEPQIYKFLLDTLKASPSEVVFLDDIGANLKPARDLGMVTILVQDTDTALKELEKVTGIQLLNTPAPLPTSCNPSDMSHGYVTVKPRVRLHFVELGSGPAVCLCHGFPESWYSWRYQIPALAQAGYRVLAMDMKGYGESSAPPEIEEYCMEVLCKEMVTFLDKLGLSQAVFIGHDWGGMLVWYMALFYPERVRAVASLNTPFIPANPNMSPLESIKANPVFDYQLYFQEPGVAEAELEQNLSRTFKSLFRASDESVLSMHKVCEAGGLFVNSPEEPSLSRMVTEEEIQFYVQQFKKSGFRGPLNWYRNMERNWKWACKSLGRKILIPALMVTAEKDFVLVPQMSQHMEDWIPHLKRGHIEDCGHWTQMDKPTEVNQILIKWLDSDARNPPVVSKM
# measurement_description: Inhibition of sEH (unknown origin) using PHOME as substrate assessed as formation of 6-methoxy-2-naphthaldehyde measured during 1 hr by fluorescence photometric analysis
pIC50: −log10 of the molar value.
Hi, to clarify the labels: Yes covers pIC50 from 5 upward, No covers anything below 5.

O=C1c2c(O)cccc2C([C@@H]2O[C@H](CO)[C@@H](O)[C@H](O)[C@H]2O)c2cc(CO)cc(O)c21 (stereo partly drawn) | No
C[C@@H]1O[C@@H](OCc2cc(O)c3c(c2)[C@H]([C@@H]2O[C@H](CO)[C@@H](O)[C@H](O)[C@H]2O)c2cccc(O)c2C3=O)[C@H](O)[C@H](O)[C@H]1O | No
Cc1cc(O)c2c(c1)[C@H]([C@@H]1O[C@H](CO)[C@@H](O)[C@H](O)[C@H]1O)c1cccc(O)c1C2=O | No
O=C1c2c(O)cccc2[C@@H]([C@@H]2O[C@H](CO)[C@@H](O)[C@H](O)[C@H]2O)c2cc(CO)cc(O)c21 | No
O=C1c2cccc(O)c2C(=O)c2c(O)cc(CO)cc21 | No
O=C1c2cc(CO)cc(O)c2C(=O)c2c1ccc([C@]1([C@@H]3O[C@H](CO)[C@@H](O)[C@H](O)[C@H]3O)c3cccc(O)c3C(=O)c3c(O)cc(CO)cc31)c2O | Yes
